src = patent US4618682A

Test system: Gastric fistula rat
ASSAY_DETAILS: acute gastric fistula rat test (antisecretory screen)
Assay type: in vivo, Female Sprague-Dawley rats
CONDITION_INFO: po, 1 hr
ASSAY_METRIC: ED50 (mg/kg)

{"columns": ["SMI", "VALUE_MEASURED"],
 "data": [
  ["Cl.NC1=NCCN1C(=O)Nc1ccc(Cl)cc1Cl", 14.8],
  ["NC1=NCCN1C(=O)Nc1ccc(Cl)cc1", 29.3],
  ["Cl.NC1=NCCN1C(=O)Nc1cccc(Cl)c1.O", 14.2],
  ["Cc1ccc(NC(=O)N2CCN=C2N)cc1", 4.6],
  ["NC1=NCCN1C(=O)Nc1ccc(Cl)c(Cl)c1", 24.8],
  ["NC1=NCCN1C(=O)Nc1cc(Cl)cc(Cl)c1", 22.3],
  ["Cl.NC1=NCCN1C(=O)Nc1ccc(C(F)(F)F)cc1", 35.5],
  ["CCc1cccc(C)c1NC(=O)N1CCN=C1N.Cl", 24.5]
]}
